test system: Streptococcus mutans (ATCC33402); assay: Microtitre plate assay, IC90 determination, SMU 33402; assay type: cell-based; details: 90% inhibitory concentration for bacterial growth, 37° C., 24 hours, resazurin fluorescence
Readings of IC90 (μg/ml) SMU 33402 for the listed compounds

- compound: "COc1nc2ccc(Br)cc2cc1C(c1ccccc1)C(O)(CC[N+](C)(C)[O-])c1ccccc1 (racemic) [Compound 11]"
  IC90 (μg/ml) SMU 33402, µg/mL: 10.4
- compound: "COc1nc2ccc(Br)cc2cc1C(c1ccccc1)C(O)(CCN(C)C)c1ccccc1 (single isomer, unassigned) [E]"
  IC90 (μg/ml) SMU 33402, µg/mL: 10.1
- compound: "COc1nc2ccc(Br)cc2cc1C(c1ccccc1)C(O)(CC[N+](C)(C)[O-])c1ccccc1 (racemic) [Compound 58]"
  IC90 (μg/ml) SMU 33402, µg/mL: 5.9
- compound: "COc1nc2ccc(Br)cc2cc1C(c1ccccc1)C(O)(CCn1ccnc1)c1ccccc1 (stereo not drawn) [Compound 50]"
  IC90 (μg/ml) SMU 33402, µg/mL: 21.0
- compound: "COc1nc2ccc(Br)cc2cc1C(c1ccccc1)C(O)(CCN(C)C)c1cccc2ccccc12 (stereo not drawn) [Compound 14]"
  IC90 (μg/ml) SMU 33402, µg/mL: 12.4
- compound: "CCOc1nc2ccc(Br)cc2cc1C(c1ccccc1)C(O)(CCN(C)C)c1ccccc1 (stereo not drawn) [Compound 5]"
  IC90 (μg/ml) SMU 33402, µg/mL: 10.4
- compound: "COc1nc2cc(C)c(C)cc2cc1C(c1ccccc1)C(O)(CCN(C)C)c1cccc2ccccc12 (racemic) [Compound 229]"
  IC90 (μg/ml) SMU 33402, µg/mL: 22.5
- compound: "COc1nc2ccc(Br)cc2cc1C(c1ccccc1)C(O)(CCN1CCOCC1)c1ccc2ccccc2c1 (racemic) [Compound 140]"
  IC90 (μg/ml) SMU 33402, µg/mL: 9.5
- compound: "COCCOc1nc2ccc(Br)cc2cc1C(c1ccccc1)C(O)(CCN(C)C)c1cccc(F)c1 (racemic) [Compound 165]"
  IC90 (μg/ml) SMU 33402, µg/mL: 14.3
- compound: "COc1nc2ccc(Br)cc2cc1C(c1ccccc1)C(O)(CCN(C)C)c1ccccc1 (single isomer, unassigned) [F]"
  IC90 (μg/ml) SMU 33402, µg/mL: 22.6
- compound: "CCOc1nc2ccc(Br)cc2cc1C(c1ccccc1)C(O)(CCN(C)C)c1ccccc1 (stereo not drawn) [Compound 6]"
  IC90 (μg/ml) SMU 33402, µg/mL: 4.6
- compound: "CCNCCC(O)(c1ccc(F)cc1F)C(c1ccccc1)c1cc2cc(Br)ccc2nc1OC (racemic) [Compound A]"
  IC90 (μg/ml) SMU 33402, µg/mL: 10.8
- compound: "CSc1nc2ccc(Br)cc2cc1C(c1ccccc1)C(O)(CCN(C)C)c1ccccc1 (stereo not drawn) [Compound 33]"
  IC90 (μg/ml) SMU 33402, µg/mL: 10.4
- compound: "COc1nc2ccc(Br)cc2cc1C(c1ccccc1)C(O)(CCN(C)C)c1cccc2ccccc12 (stereo not drawn) [Compound 13]"
  IC90 (μg/ml) SMU 33402, µg/mL: 3.5
- compound: "CSc1nc2ccc(Br)cc2cc1C(c1ccccc1)C(O)(CCN(C)C)c1ccccc1 (stereo not drawn) [Compound 32]"
  IC90 (μg/ml) SMU 33402, µg/mL: 4.6
- compound: "COc1nc2ccc(Br)cc2cc1C(c1ccccc1)C(O)(CCN(C)C)c1cccc2ccccc12 (stereo not drawn) [Compound 15]"
  IC90 (μg/ml) SMU 33402, µg/mL: 12.4
- compound: "COc1nc2ccc(Cl)cc2cc1C(c1ccccc1)C(O)(CCN(C)C)c1ccccc1 (stereo not drawn) [Compound 30]"
  IC90 (μg/ml) SMU 33402, µg/mL: 10.3
- compound: "COc1nc2ccc(Br)cc2cc1C(c1ccccc1)C(O)(CCN1CCOCC1)c1ccc2ccccc2c1 (racemic) [Compound 139]"
  IC90 (μg/ml) SMU 33402, µg/mL: 18.9
